methodDescription: p53 small molecule agonists, cell-based qHTS assay with rat liver microsomes: qHTS cell viability counter screen (AID 1963580); note: nearly all actives have a fitted effect of over 45% in size; note: potency is the fitted concentration of half-maximal effect
assayConditions: p53RE-bla HCT-116 + rat microsomes, ATP viability, 16 h; series mostly up to 66 µM
Records with an inconclusive call do not appear. Activity calls are given as the source filed them. Calls come from the whole dose curve.

# compound, Potency
data = [
    ("O=[N+]([O-])c1cc(C(F)(F)F)c(Cl)c([N+](=O)[O-])c1Nc1ncc(C(F)(F)F)cc1Cl", "25.7 µM (active)"),
    ("C[N+]1(CCF)[C@@H]2CC[C@H]1CC(OC(=O)C(O)(c1ccccc1)c1ccccc1)C2 (stereo not given in full)", "inactive"),
    ("C[C@H]1CCC[C@H](O)CCCCCc2cc(O)cc(O)c2C(=O)O1", "inactive"),
    ("C=C(C)C(=O)OCCCCOC(=O)C(=C)C", "inactive"),
    ("C[C@]12CC[C@@H]3c4ccc(OC(=O)N(CCCl)CCCl)cc4CC[C@H]3[C@@H]1CC[C@@H]2O", "inactive"),
]

----------
assayTarget: D(2) dopamine receptor (Homo sapiens)
methodDescription: Dopamine D2 receptor (DRD2) small molecule agonists, cell-based qHTS assay (AID 1963594); note: nearly all actives have a fitted effect of over 35% in size
assayConditions: HEK293-DRD2 cAMP HTRF, agonist mode, 30 min; series mostly up to 92.4 µM
Inconclusive results are not listed. Activity calls are given as the source filed them. Calls follow the shape of the full dose curve.
Possible outcomes: yes (1) for active, no (0) for inactive

# molecule, assignedCategory
records = [
    ("CCOP(=O)(Sc1ccccc1)Sc1ccccc1", "no (0)"),
    ("O=C(O)c1ccc2[nH]cc(CCCCN3CC=C(c4ccccc4)CC3)c2c1", "yes (1)"),
    ("CC(C)(c1cc(Cl)c(O)c(Cl)c1)c1cc(Cl)c(O)c(Cl)c1", "no (0)"),
    ("C[C@]12CC[C@H]3[C@@H](CCC4=CC(=O)CC[C@@H]43)[C@@H]1CC[C@@H]2OC(=O)CCC1CCCCC1", "no (0)"),
    ("CN1C2CCC(C)(C)C1CC(OC(=O)C(O)(c1cccs1)c1cccs1)C2 (stereo not given)", "no (0)"),
    ("CC#C[C@]1(O)CC[C@H]2[C@@H]3C[C@H](C)C4=CC(=O)CC[C@]4(C)[C@H]3CC[C@@]21C", "no (0)"),
    ("CN1C[C@H](CNC(=O)OCc2ccccc2)C[C@@H]2c3cccc4c3c(cn4C)C[C@H]21", "no (0)"),
    ("CC(C)N(CCC(C(N)=O)(c1ccccc1)c1ccccn1)C(C)C (stereo not given)", "yes (1)"),
    ("O=C(O)C(O)C(O)C(=O)O (stereo not given)", "no (0)"),
    ("CCSC(C)CC1CC(=O)C(/C(CC)=N/OC/C=C/Cl)=C(O)C1 (stereo not given)", "no (0)"),
    ("[Cl-].[Cl-].[Cl-].[Yb+3]", "no (0)"),
    ("CNCC(=O)c1ccc(O)c(O)c1", "yes (1)"),
    ("O=[N+]([O-])c1cccc(CCl)c1", "no (0)"),
    ("CC(C)=CCOc1c2occc2cc2ccc(=O)oc12", "no (0)"),
    ("CCCCOC(C)=O", "no (0)"),
    ("OCCBr", "no (0)"),
    ("CCSC(=O)Cl", "no (0)"),
    ("CC(C)CC#N", "no (0)"),
    ("CCC1(CC)C(=O)NC(=O)NC1=O", "no (0)"),
    ("Cc1ccc(-c2c(Cl)nc(C#N)n2S(=O)(=O)N(C)C)cc1", "no (0)"),
]

----------
assayTarget: Beta-2 adrenergic receptor (Homo sapiens)
methodDescription: Adrenergic beta2 receptor (ADRB2) small molecule antagonists, cell-based qHTS assay (AID 1963592); note: nearly all actives have a fitted effect of over 50% in size
assayConditions: CHO-ADRB2 cells, isoproterenol-stimulated cAMP HTRF ratio, 0.5 h; series mostly up to 92.4 µM
Inconclusive results are not listed. Activity calls are given as the source filed them. The call rests on the fitted dose curve.
Possible outcomes: active, inactive

# compound, assignedCategory
records = [
    ("II", "inactive"),
    ("CCCN(CCC)CCc1c[nH]c2ccccc12", "inactive"),
    ("CCOP(=S)(OCC)SCn1nnc2ccccc2c1=O", "inactive"),
    ("C=CC(=O)[O][Sn]([CH2]CCC)([CH2]CCC)[CH2]CCC", "active"),
    ("ClC(Cl)(Cl)Cl", "inactive"),
    ("C=C(Cl)CSC(=S)N(CC)CC", "inactive"),
    ("CCC1CCC(=O)O1 (stereo unspecified)", "inactive"),
    ("CC1NCCOC1c1ccccc1 (stereo unspecified)", "inactive"),
    ("Clc1cccc(SC2CCNCC2)n1", "active"),
    ("CCOC(=O)CBr", "inactive"),
    ("Oc1ccc(I)cc1", "inactive"),
    ("COC(=O)c1cc(Oc2ccc(Cl)cc2Cl)ccc1[N+](=O)[O-]", "inactive"),
    ("CCCCC(CC)COP(=O)(Oc1ccccc1)Oc1ccccc1 (stereo unspecified)", "inactive"),
    ("Cc1ccc2ccccc2c1C", "inactive"),
    ("OC(c1ccc(Cl)cc1)(c1ccc(Cl)cc1)C(Cl)(Cl)Cl", "inactive"),
    ("CC(C)(C)C(O)/C(=C\\c1ccc(Cl)cc1Cl)n1cncn1 (stereo unspecified)", "inactive"),
    ("CCOC(=O)C(SP(=S)(OC)OC)c1ccccc1 (stereo unspecified)", "inactive"),
    ("CCOP(=O)(SC(C)CC)N1CCSC1=O (stereo unspecified)", "inactive"),
    ("CCCC(C)C1(CC)C(=O)N=C(S)NC1=O (stereo unspecified)", "inactive"),
    ("ClCc1ccc(Cl)cc1Cl", "inactive"),
    ("Cc1ccc(S(=O)(=O)N[C@@H](CCCCN)C(=O)CCl)cc1", "inactive"),
]

----------
assayTarget: Muscarinic acetylcholine receptor M1 (Homo sapiens)
methodDescription: Cholinergic receptor muscarinic 1 (CHRM1) small molecule antagonists, cell-based qHTS assay (AID 1963588); note: nearly all actives have a fitted effect of over 40% in size
assayConditions: CHRM1-CHO antagonist mode, calcium flux fluorescence; series mostly up to 61.5 µM
Results filed as inconclusive are left out. The source made the active and inactive calls. The call rests on the fitted dose curve.
Possible outcomes: true for active, false for inactive

# compound, assayTarget, assignedCategory
rows = [
    ("CC(C)(C)C(O)C(Oc1ccc(-c2ccccc2)cc1)n1cncn1 (stereo unspecified)", "Muscarinic acetylcholine receptor M1 (Homo sapiens)", "false"),
    ("NP(N)(=O)NC(=O)c1ccc(F)cc1", "Muscarinic acetylcholine receptor M1 (Homo sapiens)", "false"),
    ("CCOP(=O)(Sc1ccccc1)Sc1ccccc1", "Muscarinic acetylcholine receptor M1 (Homo sapiens)", "false"),
    ("C/C=C/C=O", "Muscarinic acetylcholine receptor M1 (Homo sapiens)", "false"),
    ("O=C(Cc1ccccc1)OCc1ccccc1", "Muscarinic acetylcholine receptor M1 (Homo sapiens)", "false"),
    ("O=c1ssc(Cl)c1Cl", "Muscarinic acetylcholine receptor M1 (Homo sapiens)", "false"),
    ("C=CC(=C)C", "Muscarinic acetylcholine receptor M1 (Homo sapiens)", "false"),
    ("COc1cc(CC(C)N)c(OC)cc1Br (stereo unspecified)", "Muscarinic acetylcholine receptor M1 (Homo sapiens)", "true"),
    ("CCOP(=S)(OCC)SCCS(=O)(=O)CC", "Muscarinic acetylcholine receptor M1 (Homo sapiens)", "false"),
    ("CC1=NNC(=O)N(/N=C/c2cccnc2)C1", "Muscarinic acetylcholine receptor M1 (Homo sapiens)", "false"),
    ("[Hg+2].[I-].[I-]", "Muscarinic acetylcholine receptor M1 (Homo sapiens)", "false"),
]

----------
assayTarget: D(2) dopamine receptor (Homo sapiens) (UniProt P14416)
Sequence (P14416 whole entry, looked up): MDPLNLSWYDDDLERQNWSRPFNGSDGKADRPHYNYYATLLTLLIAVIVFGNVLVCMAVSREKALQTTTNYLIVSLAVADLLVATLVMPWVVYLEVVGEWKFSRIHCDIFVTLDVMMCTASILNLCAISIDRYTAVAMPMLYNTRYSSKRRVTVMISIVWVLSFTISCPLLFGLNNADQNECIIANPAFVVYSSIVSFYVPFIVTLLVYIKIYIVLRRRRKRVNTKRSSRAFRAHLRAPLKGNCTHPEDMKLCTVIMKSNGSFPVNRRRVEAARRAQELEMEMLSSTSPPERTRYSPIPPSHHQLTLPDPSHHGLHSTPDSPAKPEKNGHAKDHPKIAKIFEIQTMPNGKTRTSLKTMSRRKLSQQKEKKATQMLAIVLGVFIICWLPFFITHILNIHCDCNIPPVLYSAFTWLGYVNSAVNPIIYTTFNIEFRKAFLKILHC
methodDescription: Dopamine D2 receptor (DRD2) small molecule agonists, cell-based qHTS assay (AID 1963594); note: nearly all actives have a fitted effect of over 35% in size
assayConditions: HEK293-DRD2 cAMP HTRF, agonist mode, 30 min; series mostly up to 92.4 µM
Records with an inconclusive call do not appear. The source made the active and inactive calls. Calls come from the whole dose curve.
Possible outcomes: 1.0 = active, 0.0 = inactive

# compound, assayTarget, assignedCategory
rows = [
    ("Nc1ccc2c(c1)Cc1ccccc1-2", "D(2) dopamine receptor (Homo sapiens) (UniProt P14416)", 0.0),
    ("OCC(c1ccc(Cl)cc1)c1ccc(Cl)cc1", "D(2) dopamine receptor (Homo sapiens) (UniProt P14416)", 0.0),
    ("CCOP(=S)(OCC)Oc1ncn(-c2ccccc2)n1", "D(2) dopamine receptor (Homo sapiens) (UniProt P14416)", 0.0),
    ("C[C@@H]1O[C@@H](O[C@@H]2C=C3CC[C@@H]4[C@H](CC[C@]5(C)[C@@H](c6ccc(=O)oc6)CC[C@]45O)[C@@]3(C)CC2)[C@H](O)[C@H](O)[C@H]1O", "D(2) dopamine receptor (Homo sapiens) (UniProt P14416)", 0.0),
    ("CC(=O)O[C@H]1CC[C@@]2(C)C(=CC[C@@H]3[C@@H]2CC[C@]2(C)C(=O)CC[C@@H]32)C1", "D(2) dopamine receptor (Homo sapiens) (UniProt P14416)", 0.0),
    ("CCCCCCCCCC[N+](C)(C)CCCCCCCCCC", "D(2) dopamine receptor (Homo sapiens) (UniProt P14416)", 0.0),
    ("C[C@@H]1CC2=CC(=O)CC[C@@H]2[C@H]2CC[C@@]3(C)[C@@H](CC[C@]3(C)O)[C@@H]21", "D(2) dopamine receptor (Homo sapiens) (UniProt P14416)", 0.0),
    ("CC(C)(C)NCC(O)c1cc(Cl)c(N)c(Cl)c1 (stereo not given)", "D(2) dopamine receptor (Homo sapiens) (UniProt P14416)", 0.0),
    ("CCC1(c2ccccc2)C(=O)N(COC)C(=O)N(COC)C1=O", "D(2) dopamine receptor (Homo sapiens) (UniProt P14416)", 1.0),
    ("CCCCCCBr", "D(2) dopamine receptor (Homo sapiens) (UniProt P14416)", 0.0),
    ("[O-][Cl+3]([O-])([O-])O", "D(2) dopamine receptor (Homo sapiens) (UniProt P14416)", 0.0),
    ("N#Cc1c2ccccc2cc2ccccc12", "D(2) dopamine receptor (Homo sapiens) (UniProt P14416)", 0.0),
    ("CC(C)(C)OO", "D(2) dopamine receptor (Homo sapiens) (UniProt P14416)", 0.0),
    ("Cl/C=C\\Cl", "D(2) dopamine receptor (Homo sapiens) (UniProt P14416)", 0.0),
    ("Fc1ccc(C2(Cn3cncn3)OC2c2ccccc2Cl)cc1 (stereo not given)", "D(2) dopamine receptor (Homo sapiens) (UniProt P14416)", 0.0),
]
